assay: Half life in fasted Beagle dog at 0.25 mg/kg, iv; type: ADME, organism-based, Canis lupus familiaris; design: dose 0.25 mg/kg, route intravenous; details: in vivo
Metric: half-life (h)

Some solved entries appear below for comparison.
Compound Smiles	Unit Info	half-life
O=C(O)CCNC(=O)c1ccc(CN(c2ccc(Cl)cc2)c2nc(-c3ccc(OC(F)(F)F)cc3)cs2)cc1	h	1.1
O=C(O)CCNC(=O)c1ccc(CN(c2ccc(Cl)cc2)c2nc(-c3ccc(C(F)(F)F)cc3)cs2)cc1	h	1.33
O=C(O)CCNC(=O)c1ccc(CN(c2ccc3c(c2)CCCC3)c2nc(-c3ccc(Cl)c(Cl)c3)cs2)cc1	h	2.07

P = O=C(O)CCNC(=O)c1ccc(CN(c2ccc(OC(F)(F)F)cc2)c2nc(-c3ccc(C(F)(F)F)cc3)cs2)cc1
Q = O=C(O)CCNC(=O)c1ccc(CN(c2ccc(C(F)(F)F)cc2)c2nc(-c3ccc(Cl)cc3)cs2)cc1
IN: From the recorded data, which exceeds the other in half-life: P or Q ? Answer with the label corresponding to your selection.
OUT: P
(P: 3.92 h, Q: 1.73 h)
